Values compiled from the nanobody polyreactivity screen of Harvey et al. (2022).

Assay: yeast display, Sf9 membrane polyspecificity reagent, FACS + sequencing; frameworks hold sequencing errors
property-label: polyreactivity (PSR sort gate)

Example sequences with recorded polyreactivity (PSR sort gate):
1) QVQLVESGGGLVQAGGSLRLSCAASGRIFTRNAMGWYRQAPGKERELVAAISRSGGSTYYADSVKGRFTISRDNAKNTVYLQMNSLKPEDTAVYYCAKRGYDNYPFYYWGQGTQVTVSS ... high polyreactivity
2) QVQLQGSGGGLVQAGGSLRQSCAASGYIFQNVPMGWNRQAPGKERELVAGIDNGTSTNYADSVNGRFTISRDNAKNTVYLQMNSLKPEDTAVYYCAAAGQADDTLGYWGQGTQVTVSS ... low polyreactivity
3) QVQLVESGGGLVQAGGSLRLSCAASGFTFAGNAMGWYRPAPGKERELVAAISRRGGSTYYADSVKGRFTISRDNAKNTVYLQMNSLKPEDTAVYYCAAVYPYDYDYWGQGTQVTVSS ... high polyreactivity
4) QVHLVESGGGLVQAGVSLRLSCAAYVRIFGRNAMGWYRQAPGKEREFVAAITYSGTSTYYADSVKGRFTISRDNAKNTVYLQMNSLKREDTAVYYCNAQYLPSHVYGRYSSTFNYWGQGTQLTVSS ... low polyreactivity
5) QVQLVESGGGLVQAGGSLRLSCAASGSIFKNYAMGWYRQAPGKERELVASITTGASTNYADSVKGRFTISRDNAKNTVYLQMNSLKPEDTAVYYCAKGGRTFRYFVAPRTFDHGYWGQGTQVTVSS ... high polyreactivity

Lookup: Suppose we examine the sequence QVQLVESGGGLVQAGGSLRLSCAASGITFGHYTMGWYRQAPGKEWDLVAAISWSGGSTYYADSVKGRFTISRDNAKYTVYLQMNSLKPEDTAVYYCNRVKRVIASYDSDYWGQGTQVTVSS ; what polyreactivity (PSR sort gate) value has been reported?
Found: low polyreactivity

Lookup: Suppose we examine the sequence QVQLVESGGGLVQAGGSLRLSCAASGFTFFSNAMGWNRQAPGKERELVAAIDWSGDNTNYADSVKGRFTISRDNAKNTVYLQLNSLKPEDTAVYYCAAVYSYYRLYAYPAYYYWGQGTQVTVSS ; what polyreactivity (PSR sort gate) value has been reported?
Found: low polyreactivity

Lookup: Suppose we examine the sequence QVQLVESGGGLVQAGGSLRLSCAASGIIFQAYAKGWYRQAPGKERELVAAISYSGGSTYYAESVKGRFTISRDNAKNNVDLQMNRLKPEVTAVYYCAAELYRYWFDMYYWGQGTQVTVSS ; what polyreactivity (PSR sort gate) value has been reported?
Found: low polyreactivity

----------
Experiment: yeast display, Sf9 membrane polyspecificity reagent, FACS + sequencing; frameworks hold sequencing errors
property-label: polyreactivity (PSR sort gate)

1. QVQLVESGGGLVQAGGSLRLTCAASGRTFVTNAMGWYRQAPGKERELVAAISWSGGDTYYADSVKGRFTISRDNAKYTVYLEMNSLKPEDTAVYYCAAYFWGVYFFGMDYWGQGTLVTVSS ... low polyreactivity
2. QVQLVESGGGLVQAGGSLRLSCAASGFTFRDYAMGWYRQAPGKEREFFADITFSGDNTRYADSVKGRFTISRDNAQNTVYLQMNSLKPEDTAVYYCNADRVVGPYDGYDYWGQGTQVTVSS ... low polyreactivity

----------
Assay: yeast display, Sf9 membrane polyspecificity reagent, FACS + sequencing; frameworks hold sequencing errors
property-label: polyreactivity (PSR sort gate)

1) QVQLVESGGGLVQAGGSLRLSCAASGFTFEFNVMGWYRQAPGKERELVASIRWGSTSYADSVKGRFTISRDNAKNTVYLQMNSLKPEDTALYDCAAVTYDYWRQGTQVTVSS ... low polyreactivity
2) QVQLVESGGGLVQAGGSLRLSCADSGRIIDTYAMVWYRQAPGKERELVASISRSDTSTSNADSVKGRFTISRDNAKNTVYLQMNSLKPEDTAVYYCNKDGVPVNNTKRYDYWGQGTQVTVSS ... low polyreactivity

----------
Assay: yeast display, Sf9 membrane polyspecificity reagent, FACS + sequencing; frameworks hold sequencing errors
property-label: polyreactivity (PSR sort gate)

1) QVQLVESGGGLVQAGGSLRLSCAASGRTFGFYVMGWYRQAPGKERELVAAITPGGNTNYADSVKGRFTISRDNAKNSVYLQMNRLKPEDTAVYYCAASPGTIASYEGDFWGQGTQVTVSS ... low polyreactivity
2) QVQLVESGGGLVQEGGSLSLSCAASGYIFYIYAMGWYRQAPGKERELVATISWSGGDTYYADSVKGRFTISRDNANNTVYLQMNSLNPEDTAVYYCATEVGQSWAGDGDYEYWGQGTQVTVSS ... low polyreactivity

----------
Experiment: yeast display, Sf9 membrane polyspecificity reagent, FACS + sequencing; frameworks hold sequencing errors
property-label: polyreactivity (PSR sort gate)

1) QVQLVDSGGGLVQAGGSLRLSCAASGSIFNVYAMGWYRQAPGKERELVAAITGSGGRTYYADSVKGRFTISRDNAKNTVYLQMNSLKPEDTAVYYCAATTRPGYRYEGDYWGQGTQVTVSS ... low polyreactivity
2) QVQLVESGGGLVQAGGSLRLSCAASGRIFGFYAMGWYRQAPGKERELVADINWSATSTYYADSVKGRFTISRDNAKNTVYLQMNSLKPEDTAVYYCAADVSYRYYWGQVTQVTVSS ... low polyreactivity
3) QVQLVESGGGLVQAGGSLRLSCAASGRIFLKYSMGWYRQAPGKERELVAAISRGGSTYYADSVKGRFTISRDNAKNTVYLQMNSLKPEDTAVYYCAATSYRRTGYNYWGQGTQVTVSS ... high polyreactivity
4) QVQLVESGGGLVQAGGSLRLSCAASGRIFKAYAMGWSRQAPGKERELVAAITSTGSTYYADSVKGRFTISRDNAKNTVYLQMNSLKPEDTAVYYCNAVRYLEYDWGQGTQVTVSS ... high polyreactivity

----------
Experiment: yeast display, Sf9 membrane polyspecificity reagent, FACS + sequencing; frameworks hold sequencing errors
property-label: polyreactivity (PSR sort gate)

1. QDQLVESGGGLVQAGGSLSLSCAASRFIYLTYAMGWSRQAPGKERELVAAISSRGGSTYYADSVKGRFTISRDNAKNTVYLQMNSLKPEDTAVYYCAYTRGKYDYWGQGTQVTVSS ... high polyreactivity
2. QVQLQERGGGLVQAGGSLRLGCEASGNISDDGYMGWYRQAPGKEREFVAAIAAGSNTNYADSVKGRFTISRDNAKNTVYLQMNSLKPVETAVFYCAVASYARVQYLYWGQGTQVTVYS ... low polyreactivity
3. QVQLVESGGGLVQAGGSLRLSCAASVSIFYPYAMGWYRQAPGKERELVAAIRWSGGRTYYADSVKGRFTISRDNAKNTVYLQMNSLKPEDTAVYYCAADGQVSGYDYWGQGTQVTVSS ... high polyreactivity
4. QVQLVESGGGLVQAGGSLRLSCAASGSISGVYAMGWYRQAPGKERELVAAISRSGGSTYYADSVKGRFTISRDNAKNTVYLQMNSLKPEDTAVYYCAAEYTYYSYGGNYDYWGQGTQVTVSS ... low polyreactivity
5. QVQLVESGGGLVQAGGSLRLSCAASGRTFTWYAMGWYRQAPGKEREFVAAISFSGGSTYYADSVKGRFTISRDYAKNTVFLQMNSLKPEDTAVYYCARPSGDAWEGPRMDYWGQGTQVTVSS ... low polyreactivity
6. QVQLVESGGGLVQAGGSLRLSCAASGSIFVGYAMGWYRQAPGKERELVAAIRWSGGSTYYADSVKGRFTISRDNAKNTVYLQMNSLKPEDTAVYYCAKYFPAGYYYWGQGTQVTVSS ... low polyreactivity

Lookup: Suppose we examine the sequence QVQIVESGGGLVQAGGSLRLSCAASGSTFPWYVMGWYRQAPGKERELVAAISWSGGRTYYADSVKGRFTISRDNAKNTVYLQMTRLKPEDRAVYYCAAEFKLVSHTYYYWGQGTQVTVSS ; what polyreactivity (PSR sort gate) value has been reported?
Found: low polyreactivity

----------
Experiment: yeast display, Sf9 membrane polyspecificity reagent, FACS + sequencing; frameworks hold sequencing errors
property-label: polyreactivity (PSR sort gate)

1. QVQLVESGGGLVQAGGSLRLSCAASGYDMGWYRQAPGKERELVAAISRGGSTSYADSVKGRFTISRENAKNTVYLQMNSLKPEDTAVYYCAARYGSYRVGYDYWGQGTQVTVSS ... low polyreactivity
2. QVQLVESGGGLVQAGGSLRLSCAASGSIFIRNAMGWYRQAPGKERELVAAITSRGGSRYYADSVKGRFTISRDNAKNTVYLQMNSLKPEDTSVYYCARRYYGLYDYWGQGTQVTVSS ... low polyreactivity
3. QVQLVESGGGLVQAGGSLRLTCAASGFTFRYYTMGWYRQAPGTERELVARISNRGGSTYYADSVKGRFTISRDNAKNTVYLQMNSLKPEDTAVFYCAAARRYYTYYREDYYYWGQGTQVTVSS ... high polyreactivity
4. QVQLVESGGGLVQAGGSLRLSCAASGITFFYYAMGWYRQAPGKERELVAAISTSGGRTYYADSVKGRFTISRDNAKNTVYLQMNSLKPEDTAVYYCAARSRVPPAGPRYDYWGQGTQVTVSS ... high polyreactivity
5. QVQLVESGGGLVQAGGSLRLSCAASGSIFKGYAMGWYRQAPGKERELVAAISSSGGSTYYADSVKGRFTISRDNAKNTVYLQMNSLKPEDTAVYYCNTDRYYTYDYWGQGTQVTVSS ... low polyreactivity
6. QVQLVESGGGLVQAGGSLRLSCAASGITFWGYAMGWYRQAPGKEREFVARINWSGGRTYYAESVKGRFTNSRDNAKNTVYLQMNSLKPEDTAVYYCAATSLIYGYRTYDYWGQGTQVTVSS ... high polyreactivity
7. QVQLVESGGGLVQAGGSLRLSCAASGSIFEQYTMGWYRQAPGKERELVAAISRRYGRTYYADSVKGRFTISRDNAKNTVYLQMNSLKPEETAVYYCNTVYYGNFYSTRYDYWGHGTQVTVSS ... high polyreactivity

Switching to the query record.
Lookup: Suppose we examine the sequence QVQLVESGGGIVQAGGSLRLSCAASGRIFAYYAMGWYRQAPGKERELVAAISSSGGGTYYAYSVKGRFTISRDNAKNTVYLQMTSLKPEDTSVYYCAKRVPRKSSVSHPYDYWGQGTQVTVSS ; what polyreactivity (PSR sort gate) value has been reported?
Found: high polyreactivity
